Recorded measurements of pKi, one per entry
target: human recombinant AT2 receptor (Homo sapiens, UniProt P50052); assay: Binding to AT2 receptor, radiometric scintillation assay (Eurofins ITEM26); conditions: seven-point dose-response curve, ligand 125I CGP 42112A; * rows = mean of runs
Sequence (P50052 whole entry): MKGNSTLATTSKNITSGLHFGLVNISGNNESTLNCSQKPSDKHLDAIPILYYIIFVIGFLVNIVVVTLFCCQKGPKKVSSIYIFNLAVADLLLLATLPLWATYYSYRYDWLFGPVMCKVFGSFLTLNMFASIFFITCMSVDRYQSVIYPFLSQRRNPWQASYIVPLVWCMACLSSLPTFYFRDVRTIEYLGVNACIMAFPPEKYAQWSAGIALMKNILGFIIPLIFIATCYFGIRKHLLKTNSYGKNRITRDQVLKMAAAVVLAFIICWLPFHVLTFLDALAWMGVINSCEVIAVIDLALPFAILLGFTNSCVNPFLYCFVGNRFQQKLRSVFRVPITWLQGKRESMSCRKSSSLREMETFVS
Remember, pKi is on a log scale: it is -log10 of the molar concentration.

What measured pKi goes with `CC(C)Cc1ccc(S(=O)(=O)Nc2ncc(Br)cn2)c(-c2ccc(Cn3ccnc3C(C)(C)C)cc2)c1` ?
8.67

What measured pKi goes with `COc1cnc(NS(=O)(=O)c2ccc(CC(C)C)cc2-c2ccc(Cn3ccnc3C(C)(C)C)cc2)nc1` ?
8.22

What measured pKi goes with `Cc1cnc(NS(=O)(=O)c2ccc(CC(C)C)cc2-c2ccc(Cn3ccnc3C(C)(C)C)c(F)c2)nc1` ?
8.77

What measured pKi goes with `COc1cc(NS(=O)(=O)c2ccc(CC(C)C)cc2-c2ccc(Cn3ccnc3C(C)(C)C)c(F)c2)nc(OC)n1` ?
7.22

What measured pKi goes with `COc1ccc(NS(=O)(=O)c2ccc(CC(C)C)cc2-c2ccc(Cn3ccnc3C(C)(C)C)cc2)nn1` ?
8.59

What measured pKi goes with `CC(C)Cc1ccc(S(=O)(=O)Nc2ncc(C(F)(F)F)cn2)c(-c2ccc(Cn3ccnc3C(C)(C)C)c(F)c2)c1` ?
8.87

What measured pKi goes with `CCc1nccn1Cc1ccc(-c2cc(CC(C)C)sc2S(=O)(=O)Nc2ncccn2)cc1` ?
9.19

---

molecular target: CYP2C19 (Homo sapiens); construct: isoform-specific substrates incubated with human liver microsomes; tissue Eurofins ITEMG232 (protocol number); host or cells: human liver microsomes; experiment: CYP inhibition in human liver microsomes (Eurofins ITEMG232); assay type: in vitro ADME; conditions: human, probe omeprazole, substrate omeprazole, read-out: CYP2C19 Inh %
Sequence (P33261 whole entry, canonical isoform): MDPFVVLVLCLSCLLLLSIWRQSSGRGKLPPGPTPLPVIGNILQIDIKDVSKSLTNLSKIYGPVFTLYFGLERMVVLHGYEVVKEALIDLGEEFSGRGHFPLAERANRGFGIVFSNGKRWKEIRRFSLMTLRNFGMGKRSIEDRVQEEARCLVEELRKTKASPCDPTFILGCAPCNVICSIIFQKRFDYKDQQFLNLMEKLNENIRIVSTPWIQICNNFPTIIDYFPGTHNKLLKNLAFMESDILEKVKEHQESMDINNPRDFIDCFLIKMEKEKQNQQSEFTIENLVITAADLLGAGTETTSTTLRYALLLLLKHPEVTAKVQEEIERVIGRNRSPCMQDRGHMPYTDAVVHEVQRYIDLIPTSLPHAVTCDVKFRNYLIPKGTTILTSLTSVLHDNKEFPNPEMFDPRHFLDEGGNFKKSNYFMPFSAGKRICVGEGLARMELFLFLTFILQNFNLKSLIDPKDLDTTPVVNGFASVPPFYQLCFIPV
Recorded measurements of inhibition at 10 µM, one per entry
Express the result in % but write the number alone.

{"columns": ["compound", "unit abbrev", "inhibition at 10 µM"],
 "data": [
  ["CC(C)Cc1ccc(S(=O)(=O)Nc2ncc(C#N)cn2)c(-c2ccc(Cn3ccnc3C(C)(C)C)c(F)c2)c1 [Example 12]", "%", 48.9],
  ["CC(C)Cc1ccc(S(=O)(=O)Nc2ncc(C(F)(F)F)cn2)c(-c2ccc(Cn3ccnc3C(C)(C)C)c(F)c2)c1 [Example 21]", "%", 60.2],
  ["COc1ccc(NS(=O)(=O)c2ccc(CC(C)C)cc2-c2ccc(Cn3ccnc3C(C)(C)C)c(F)c2)nn1 [Example 23]", "%", 63.5]
]}

Now consider the entry below.
Could you share what inhibition at 10 µM was measured for CC(C)Cc1ccc(S(=O)(=O)Nc2ncccn2)c(-c2ccc(Cn3ccnc3C(C)(C)C)c(F)c2)c1 [Example 7] , tested on CYP2C19 (Homo sapiens)?
41

---

biological target: CYP1A2 (Homo sapiens); construct: isoform-specific substrates incubated with human liver microsomes; tissue Eurofins ITEMG232 (protocol number); host or cells: human liver microsomes; test: in vitro; type: in vitro ADME; settings: human, microsomes, human liver microsomes, substrate phenacetin, read-out: CYP1A2 Inh %
Sequence (P05177 whole entry, canonical isoform): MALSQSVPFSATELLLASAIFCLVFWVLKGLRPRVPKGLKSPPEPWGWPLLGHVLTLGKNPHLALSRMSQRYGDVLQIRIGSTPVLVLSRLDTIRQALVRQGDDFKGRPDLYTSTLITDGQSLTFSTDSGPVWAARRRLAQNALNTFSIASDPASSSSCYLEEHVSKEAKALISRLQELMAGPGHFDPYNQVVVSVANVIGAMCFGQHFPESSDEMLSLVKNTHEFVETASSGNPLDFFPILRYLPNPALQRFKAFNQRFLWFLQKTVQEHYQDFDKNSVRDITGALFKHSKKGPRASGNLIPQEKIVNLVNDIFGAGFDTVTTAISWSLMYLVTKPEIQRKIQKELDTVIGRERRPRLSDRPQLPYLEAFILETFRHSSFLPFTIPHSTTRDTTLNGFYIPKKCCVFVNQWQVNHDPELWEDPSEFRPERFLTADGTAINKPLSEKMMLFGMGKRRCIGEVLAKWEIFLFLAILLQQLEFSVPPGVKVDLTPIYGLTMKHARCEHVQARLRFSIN
assay metric: inhibition at 10 µM (%)
Express the result in % but write the number alone.

Use the examples below as a reference point.
{"columns": ["compound", "inhibition at 10 µM (%)"],
 "data": [
  ["CC(C)Cc1ccc(S(=O)(=O)Nc2ncccn2)c(-c2ccc(Cn3ccnc3C(C)C)c(F)c2)c1 [Example 27]", 17.4],
  ["CC(C)Cc1ccc(S(=O)(=O)Nc2ncc(Cl)cn2)c(-c2ccc(Cn3ccnc3C(C)(C)C)cc2)c1 [Example 2]", 84],
  ["Cc1cnc(NS(=O)(=O)c2ccc(CC(C)C)cc2-c2ccc(Cn3ccnc3C(C)(C)C)c(F)c2)nc1 [Example 26]", 10.3]
]}

What measured inhibition at 10 µM goes with CCc1nccn1Cc1ccc(-c2cc(CC(C)C)sc2S(=O)(=O)Nc2ncccn2)cc1F [Example 45] ?
54

---

biological target: CYP3A4 (Homo sapiens, UniProt P08684); experiment: CYP inhibition in human liver microsomes (Eurofins ITEMG232), midazolam substrate; assay type: in vitro ADME; design: isoform-specific substrates incubated with human liver microsomes; tissue Eurofins ITEMG232 (protocol number); host or cells: human liver microsomes; conditions: human, probe midazolam, read-out: CYP3A4 midazolam Inh %
Sequence (P08684 whole entry, canonical isoform): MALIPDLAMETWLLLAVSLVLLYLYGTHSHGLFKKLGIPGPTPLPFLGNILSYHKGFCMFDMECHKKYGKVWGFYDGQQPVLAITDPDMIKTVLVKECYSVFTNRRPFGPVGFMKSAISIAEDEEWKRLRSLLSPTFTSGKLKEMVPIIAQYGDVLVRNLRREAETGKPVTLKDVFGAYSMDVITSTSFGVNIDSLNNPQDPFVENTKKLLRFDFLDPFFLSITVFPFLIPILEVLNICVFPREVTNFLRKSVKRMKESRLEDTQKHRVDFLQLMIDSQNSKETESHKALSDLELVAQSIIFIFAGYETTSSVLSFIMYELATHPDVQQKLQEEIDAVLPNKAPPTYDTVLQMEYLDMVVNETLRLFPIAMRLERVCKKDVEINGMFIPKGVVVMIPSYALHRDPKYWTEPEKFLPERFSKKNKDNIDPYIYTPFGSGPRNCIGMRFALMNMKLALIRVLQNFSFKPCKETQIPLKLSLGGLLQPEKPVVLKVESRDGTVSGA
# thresholds on inhibition at 10 µM define classes: band A (below 30%), band B (30% to below 50%), band C (50% or more)

{"columns": ["smiles input", "study target", "category label"],
 "data": [
  ["CC(C)Cc1ccc(S(=O)(=O)Nc2ncccn2)c(-c2ccc(Cn3ccnc3C(C)C)c(F)c2)c1", "CYP3A4 (Homo sapiens, UniProt P08684)", "band A"],
  ["CC(C)Cc1ccc(S(=O)(=O)Nc2ncc(C(F)(F)F)cn2)c(-c2ccc(Cn3ccnc3C(C)(C)C)cc2)c1", "CYP3A4 (Homo sapiens, UniProt P08684)", "band B"]
]}

Which bin should I file `COc1ncncc1NS(=O)(=O)c1ccc(CC(C)C)cc1-c1ccc(Cn2ccnc2C(C)(C)C)c(F)c1` under?
band C

Which bin should I file `CCc1nccn1Cc1ccc(-c2cc(CC(C)C)sc2S(=O)(=O)Nc2ncccn2)cc1F` under?
band A

---

molecular target: CYP2C19 (Homo sapiens); construct: isoform-specific substrates incubated with human liver microsomes; tissue Eurofins ITEMG232 (protocol number); host or cells: human liver microsomes; test: CYP inhibition in human liver microsomes (Eurofins ITEMG232); format: in vitro ADME; conditions: human, probe omeprazole, substrate omeprazole, read-out: CYP2C19 Inh %
Where inhibition at 10 µM equals or exceeds 40%, the correct label is class 1; where it does not, the label is class 0.

Example cases with answers are listed next.
{"columns": ["smiles input", "study target", "category label"],
 "data": [
  ["CC(C)Cc1ccc(S(=O)(=O)Nc2ncc(F)cn2)c(-c2ccc(Cn3ccnc3C(C)(C)C)c(F)c2)c1", "CYP2C19 (Homo sapiens)", "class 0"],
  ["CCc1nccn1Cc1ccc(-c2cc(CC(C)C)ccc2S(=O)(=O)Nc2ncccn2)cc1F", "CYP2C19 (Homo sapiens)", "class 1"]
]}

Hi, just wondering whether `COc1ncnc(OC)c1NS(=O)(=O)c1ccc(CC(C)C)cc1-c1ccc(Cn2ccnc2C(C)(C)C)c(F)c1` shows inhibition at 10 µM of 40% or higher.
class 1

Hi, just wondering whether `COc1ncncc1NS(=O)(=O)c1ccc(CC(C)C)cc1-c1ccc(Cn2ccnc2C(C)(C)C)c(F)c1` shows inhibition at 10 µM of 40% or higher.
class 1

Hi, just wondering whether `CC(C)Cc1ccc(S(=O)(=O)Nc2ncc(Cl)cn2)c(-c2ccc(Cn3ccnc3C(C)(C)C)c(F)c2)c1` shows inhibition at 10 µM of 40% or higher.
class 1

Hi, just wondering whether `CC(C)Cc1ccc(S(=O)(=O)Nc2ncc(F)cn2)c(-c2ccc(Cn3ccnc3C(C)(C)C)cc2)c1` shows inhibition at 10 µM of 40% or higher.
class 0

Hi, just wondering whether `CC(C)Cc1ccc(S(=O)(=O)Nc2nccs2)c(-c2ccc(Cn3ccnc3C(C)(C)C)cc2)c1` shows inhibition at 10 µM of 40% or higher.
class 1

---

Recorded measurements of inhibition at 10 µM, one per entry
Target: CYP2C8 (Homo sapiens)
Construct: isoform-specific substrates incubated with human liver microsomes; tissue Eurofins ITEMG232 (protocol number); host or cells: human liver microsomes
Sequence (P10632 1-490): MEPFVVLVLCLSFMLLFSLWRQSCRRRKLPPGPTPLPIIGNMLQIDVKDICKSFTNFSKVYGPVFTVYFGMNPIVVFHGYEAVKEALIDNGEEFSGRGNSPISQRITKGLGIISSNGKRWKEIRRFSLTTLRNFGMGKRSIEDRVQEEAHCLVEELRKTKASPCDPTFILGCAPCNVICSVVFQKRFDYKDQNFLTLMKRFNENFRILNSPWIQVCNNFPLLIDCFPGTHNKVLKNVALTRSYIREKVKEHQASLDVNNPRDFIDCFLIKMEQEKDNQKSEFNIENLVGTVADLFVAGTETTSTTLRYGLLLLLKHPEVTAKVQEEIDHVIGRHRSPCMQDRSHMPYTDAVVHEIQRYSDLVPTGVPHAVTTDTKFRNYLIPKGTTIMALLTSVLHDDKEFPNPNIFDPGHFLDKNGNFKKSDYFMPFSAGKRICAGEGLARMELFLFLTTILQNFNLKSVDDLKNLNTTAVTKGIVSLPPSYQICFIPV
Experiment: CYP inhibition in human liver microsomes (Eurofins ITEMG232)
Assay type: in vitro ADME
Settings: human, probe paclitaxel and amodiaquine, substrate paclitaxel and amodiaquine, read-out: CYP2C8 Inh %
Express the result in % but write the number alone.

Use the examples below as a reference point.
{"columns": ["compound", "inhibition at 10 µM [%]"],
 "data": [
  ["CC(C)Cc1ccc(S(=O)(=O)Nc2ncc(Cl)cn2)c(-c2ccc(Cn3ccnc3C(C)(C)C)c(F)c2)c1 [Example 10]", 93.2],
  ["CCc1nccn1Cc1ccc(-c2cc(CC(C)C)ccc2S(=O)(=O)Nc2ncccn2)cc1F [Example 29]", 58.2],
  ["COc1ncncc1NS(=O)(=O)c1ccc(CC(C)C)cc1-c1ccc(Cn2ccnc2C(C)(C)C)cc1 [Example 18]", 59.7],
  ["CC(C)Cc1ccc(S(=O)(=O)Nc2ncccn2)c(-c2ccc(Cn3ccnc3C(C)(C)C)c(F)c2)c1 [Example 7]", 78],
  ["Cc1nccn1Cc1ccc(-c2cc(CC(C)C)ccc2S(=O)(=O)Nc2ncccn2)cc1F [Example 28]", 41.6]
]}

What measured inhibition at 10 µM goes with CC(C)Cc1ccc(S(=O)(=O)Nc2ncccn2)c(-c2ccc(Cn3ccnc3)c(F)c2)c1 [Example 30] ?
62.4

What measured inhibition at 10 µM goes with CC(C)Cc1ccc(S(=O)(=O)Nc2ncc(F)cn2)c(-c2ccc(Cn3ccnc3C(C)(C)C)c(F)c2)c1 [Example 9] ?
91.6

What measured inhibition at 10 µM goes with COc1ncnc(OC)c1NS(=O)(=O)c1ccc(CC(C)C)cc1-c1ccc(Cn2ccnc2C(C)(C)C)c(F)c1 [Example 25] ?
40

What measured inhibition at 10 µM goes with CC(C)Cc1ccc(S(=O)(=O)Nc2ncc(C#N)cn2)c(-c2ccc(Cn3ccnc3C(C)(C)C)c(F)c2)c1 [Example 12] ?
89.6

What measured inhibition at 10 µM goes with Cc1nc(NS(=O)(=O)c2ccc(CC(C)C)cc2-c2ccc(Cn3ccnc3C(C)(C)C)cc2)oc1C [Example 13] ?
71.3

What measured inhibition at 10 µM goes with CC(C)Cc1ccc(S(=O)(=O)Nc2nccs2)c(-c2ccc(Cn3ccnc3C(C)(C)C)cc2)c1 [Example 5] ?
92.1

What measured inhibition at 10 µM goes with CC(C)Cc1ccc(S(=O)(=O)Nc2ncc(C(F)(F)F)cn2)c(-c2ccc(Cn3ccnc3C(C)(C)C)c(F)c2)c1 [Example 21] ?
59.1

What measured inhibition at 10 µM goes with COc1ccc(NS(=O)(=O)c2ccc(CC(C)C)cc2-c2ccc(Cn3ccnc3C(C)(C)C)c(F)c2)nn1 [Example 23] ?
24.6
